Taken from patent US20150010586A1.

- MEASUREMENT TARGET: T1, HLA-A*1101 (human)
- T1 construct: whole, on cells; Class I molecule on intact B cells (BVR)
- METHOD DESCRIPTION: cellular competition assay vs FL-labelled reference peptide on B cells; affinity category (high/good IC50<5 uM, intermediate 5-15 uM, low >15-50 uM)
pIC50: −log10 of the molar value.
PROPERTY NAME: pIC50

Problem: Please give the measured pIC50 for this binder: GQSTSRHKK (also called A11 (374-382)) [p53 374-382 GQSTSRHKK]
Solution: 4.82 to 5.30
